Entry source: patent US20100291682

target of assay: T1, MBP-Mos-1 transposase (MBP-Tnp) (Drosophila mauritiana, UniProt Q7JQ07 SEQ:1-345)
T1 sequence: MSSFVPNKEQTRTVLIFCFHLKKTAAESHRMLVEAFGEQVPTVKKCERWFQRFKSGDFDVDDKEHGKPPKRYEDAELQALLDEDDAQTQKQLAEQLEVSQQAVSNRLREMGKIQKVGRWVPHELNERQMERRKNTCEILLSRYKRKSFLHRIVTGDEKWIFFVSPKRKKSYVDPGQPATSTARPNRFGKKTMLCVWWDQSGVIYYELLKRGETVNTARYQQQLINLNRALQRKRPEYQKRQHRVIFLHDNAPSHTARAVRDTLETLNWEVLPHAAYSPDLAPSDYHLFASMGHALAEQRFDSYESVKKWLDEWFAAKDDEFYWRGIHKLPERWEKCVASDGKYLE
assay: EMSA; clone number to SEQ mapping not given
cond: tags: N-terminal MBP (pMalC2x); chain copies: 2
measured property: binding result

Lookup: Given the entry ITRSelex SEQ 44 (dsDNA) DNA 1: ATAGTGTTTAAAGCTTACT DNA 2: AGTAAGCTTTAAACACTAT , report its measured binding result.
Found: binds

Lookup: Given the entry ITRSelex SEQ 43 (dsDNA) DNA 1: GGAGAAATGGTAGAATAGTTTA DNA 2: TAAACTATTCTACCATTTCTCC , report its measured binding result.
Found: binds

Lookup: Given the entry ITRSelex SEQ 45 (dsDNA) DNA 1: GTCAGTGATGTCACCAACGTATGGAATATCGTAT DNA 2: ATACGATATTCCATACGTTGGTGACATCACTGAC , report its measured binding result.
Found: binds
